Below, each entry is listed with its recorded TGI.
test system: SF-268 CNS; test: NCI tumour cell line growth inhibition, 48 h

Examples with their reported TGI follow.
- compound: "CC1=C[P+](c2ccccc2)(c2ccccc2)c2ccccc2O1"
  TGI: "> 100 µM"
- compound: "COc1ccc(-n2nc(C)c3c(Nc4ccc(NC(=O)Nc5cccc(C(F)(F)F)c5)cc4)ncnc32)cc1"
  TGI: "5.51 µM"
- compound: "Nc1c(C(=O)c2cccc(-c3cccnc3)c2)cnn1-c1ccc(F)cc1"
  TGI: "> 25 µM"
- compound: "O=C(Nc1cc(Cl)c(I)c(Cl)c1)C(F)(F)F"
  TGI: "> 100 µM"
- compound: "Cn1cc(-c2ccc3c4ccccc4n(C)c3c2)c2ccccc21"
  TGI: "> 100 µM"

Need TGI of CC1=C(C)C(=O)OC(C(C)(O)C2(O)CC3OC34C3CC(O)C56OC5C=CC(=O)C6(C)C3CCC42C)C1 (stereo unspecified) , thanks.
7.96 µM

If you can, please state the reported TGI value of N.N.N.N.N#N.N#N.[Cl-].[Os+6] .
> 100 µM

###

Overview of reported TGI across a group of compounds:
test system: IGROV1 ovarian; assay: NCI tumour cell line growth inhibition, 48 h

Observe how each entry below is paired with its result.
- compound: "Cc1cc(C)c2c(=N)c3ccccc3n(CCCCCCCCn3c4ccccc4c(=N)c4c(C)cc(C)nc43)c2n1"
  TGI: "2.71 µM"
- compound: "O=[N+]([O-])c1ccccc1/C=N\\NC(=S)N/N=C/c1ccccc1[N+](=O)[O-]"
  TGI: "> 100 µM"
- compound: "O=C1c2ccccc2C(=O)N1c1ccc(Cc2ccc(N3C(=O)c4ccccc4C3=O)cc2)cc1"
  TGI: "> 100 µM"
- compound: "Cc1cccc2c(=O)c3cccc([C@H](C)C(=O)O)c3oc12"
  TGI: "> 100 µM"
- compound: "O=[N+]([O-])c1ccc(Sc2cccc[n+]2[O-])c2nonc12"
  TGI: "14.5 µM"

// switching to the query compound
Which value of TGI has been reported for N[C@H]1CCC[C@@H](O)C1O (stereo partly drawn) in the records?
> 100 µM

###

test system: RXF-631 renal; experiment: NCI tumour cell line growth inhibition, 48 h
measure: TGI (µM)
Write the value in µM as a bare number.

Use the examples below as a reference point.
- compound: "Cn1c(=O)nc2n(-c3ccc(Br)cc3)c3ccccc3nc-2c1=O"
  measured_target: "RXF-631 renal"
  TGI (µM): 29.8
- compound: "Cc1cccc(NC(=O)c2c(N)[n+]([O-])c3ccccc3[n+]2[O-])c1"
  measured_target: "RXF-631 renal"
  TGI (µM): 3.24
- compound: "CCCCC[C@@H]1CCCC2NC(CCCCCO[Si](c3ccccc3)(c3ccccc3)C(C)(C)C)CCC21 (some centres not stated)"
  measured_target: "RXF-631 renal"
  TGI (µM): 27.7

Query compound follows.
What value of TGI has been reported for the following compound? CC(C)(C)c1cc(C2c3cc4c(cc3OC(O)(CO)C2C(=O)O)OCO4)cc(C(C)(C)C)c1O (configuration not stated) (tested in a mixture with another compound)
43.3

###

test system: SK-MEL-5 melanoma; assay: NCI tumour cell line growth inhibition, 48 h
Below, each entry is listed alongside its reported GI50.

Use these answered entries as a reference point.
- compound: "O=C(CCN1CCCC1)Nc1ccc2c(Nc3ccc(F)cc3)c3ccccc3nc2c1"
  measured_target: "SK-MEL-5 melanoma"
  GI50: "1530 nM"
- compound: "CC(C)(C)OC(=O)NCCCCCCCCCn1c2c(c3ccccc3c1=O)C(=O)c1ccccc1-2"
  measured_target: "SK-MEL-5 melanoma"
  GI50: "> 100000 nM"
- compound: "O=C(CSSCC(=O)c1ccc(Cl)cc1)c1ccc(Cl)cc1"
  measured_target: "SK-MEL-5 melanoma"
  GI50: "3320 nM"

Give its GI50 value. Item: CN(C)Cc1ccc(NC(=O)c2cncc(C#Cc3cnc(N)c4ncccc34)c2)cc1C(F)(F)F
1170 nM

// returns reported GI50 for input N#CC1=C(N)NC(=O)C(C#N)C12Nc1ccccc1S2 (stereo not given)
> 100000 nM

###

system: PC-3 prostate; assay: NCI tumour cell line growth inhibition, 48 h; in the data active = GI50 below about 0.43 µM; inactive = the rest
Write down the outcome that applies. Available outcomes: t = active, f = inactive

- molecule: "CCCC(=O)Oc1ccc(/C(=C(\\C)c2ccc(Cl)cc2)c2ccc(OCCN(CC)CC)cc2)cc1"
  label_class: "f"
- molecule: "CNc1c2ccccc2nc2occ(Cl)c12"
  label_class: "f"
- molecule: "Cc1cc(NC(=O)NCCOc2ccc(N3C(N)=NC(N)=NC3(C)C)cc2Cl)ccc1S(=O)(=O)F"
  label_class: "t"
- molecule: "COc1cc(/C=C/C(=O)c2c(C)n([O-])c3ccccc3[n+]2=O)cc(OC)c1OC"
  label_class: "f"
- molecule: "N#CC1=C(N)NC(=O)C(C#N)C12Nc1ccccc1S2 (centres undefined)"
  label_class: "f"
- molecule: "CN(C)Cc1ccc(NC(=O)c2cncc(C#Cc3cnc(N)c4ncccc34)c2)cc1C(F)(F)F"
  label_class: "f"
- molecule: "COC(=O)CNC(=O)C(=O)c1c(O)c(O)c(C(C)C)c2cc(C)c(-c3c(C)cc4c(C(C)C)c(O)c(O)c(C(=O)C(=O)NCC(=O)OC)c4c3O)c(O)c12"
  label_class: "f"
- molecule: "COc1ccc(-c2nc(NC(=O)CS(=O)(=O)c3ccc(F)cc3)sc2C)cc1"
  label_class: "f"

Per the assay record, what outcome was assigned to O=C1c2c(c3c4cc(F)ccc4oc3c3[nH]c4ccccc4c23)C(=O)N1O ?
f

###

test system: COLO 205 colon; assay: NCI tumour cell line growth inhibition, 48 h
# TGI listing for each entry below

- compound: "O=C1C=C(NCCc2ccc(O)c([N+](=O)[O-])c2)C(=O)c2[nH]cnc21"
  measured_target: "COLO 205 colon"
  TGI: "> 100 µM"
- compound: "COc1cc(C[C@H]2COC(=O)[C@]2(O)Cc2ccc(OCc3ccccc3)c(OC)c2)ccc1OCc1ccccc1"
  measured_target: "COLO 205 colon"
  TGI: "24.1 µM"
- compound: "O=C(O)/C=C/c1c2ccc(=O)c(O)c-2oc2c(O)c(O)ccc12"
  measured_target: "COLO 205 colon"
  TGI: "> 100 µM"

Which measured TGI value corresponds to CC(NCCN(C)C)C1CCC2C3CCc4cc(O)ccc4C3CCC12C (centres undefined) ?
3.54 µM

Which TGI value belongs to O=CNC(Cc1cnc[nH]1)C(=O)O (centres undefined) ?
> 100 µM

Given COc1ccc2nc3cc(Cl)ccc3c(Nc3ccccc3-c3ccccc3Nc3c4ccc(Cl)cc4nc4ccc(OC)cc34)c2c1 , state its recorded TGI.
> 88 µM

Quick one: TGI for COc1ccc([N+](=O)[O-])c2c(NCCCN(C)C)c(C)c(C)nc12 ?
> 100 µM

GET /values?readout=TGI&item= COC(=O)CNC(=O)C(=O)c1c(O)c(O)c(C(C)C)c2cc(C)c(-c3c(C)cc4c(C(C)C)c(O)c(O)c(C(=O)C(=O)NCC(=O)OC)c4c3O)c(O)c12
3.16 µM

Find the recorded TGI belonging to C=CC[P@]1(=O)O[C@H](c2ccccc2)C(C)N1C(C)C (some centres undefined) and report it.
> 100 µM

###

test system: SF-295 CNS; test: NCI tumour cell line growth inhibition, 48 h
measure: GI50

- chemical_string: "CC(C)(C)OC(=O)NCCCCCCCCCn1c2c(c3ccccc3c1=O)C(=O)c1ccccc1-2"
  measure: "GI50"
  value_reported: "24.8 µM"

Data request, read-out GI50, for N.N.N.N.N#N.N#N.[Cl-].[Os+6]
> 100 µM

Which GI50 value is on record for O=C1/C(=C/c2ccc(F)cc2)COc2ccc(O)c(O)c21 ?
8.09 µM

Please report the recorded GI50 for COc1cc(C[C@H]2COC(=O)[C@]2(O)Cc2ccc(OCc3ccccc3)c(OC)c2)ccc1OCc1ccccc1 .
18.9 µM

###

test system: HCT-116 colon; assay: NCI tumour cell line growth inhibition, 48 h
measure: TGI

Recorded TGI, per entry:
- compound: "COc1ccc([N+](=O)[O-])c2c(NCCCN(C)C)c(C)c(C)nc12"
  measured_target: "HCT-116 colon"
  TGI: "> 100 µM"
- compound: "Cc1cc(NS(=O)(=O)c2ccc(NC(=O)c3ccc(Cl)c4c(Nc5ccc(S(=O)(=O)Nc6cc(C)on6)cc5)c5ccccc5nc34)cc2)no1"
  measured_target: "HCT-116 colon"
  TGI: "27.4 µM"

Looking for the measured TGI of O=S1(=O)OCCOS(=O)(=O)C1(F)Cc1ccccc1 , can you help?
> 100 µM

Looking for the measured TGI of COC1CCCc2c(OC(C)=O)ccc(OC(C)=O)c21 (stereo unspecified) , can you help?
> 100 µM

Value lookup for TGI; key = COCN1COCN(C)C1=O
> 100 µM

Please report the recorded TGI for Cc1cccc(NC(=O)c2c(N)[n+]([O-])c3ccccc3[n+]2[O-])c1 .
20.3 µM
